Test system: DU-145 prostate
Assay: NCI-60 one-dose screen, 48 h
Settings: 10 µM
Compounds without any hit were thinned out: in the full panel of roughly 83,000, 20% have a hit. Active and inactive are the calls of the source. Rule for the calls: active = growth percent below 10; inactive = the rest.
Answer with one of the outcomes active, inactive

Recorded call for CCOC(=O)c1sc2ncnc(Nc3ccc4c(cnn4C(=O)Nc4ccccc4)c3)c2c1C ? inactive

Recorded call for CCOC(=O)c1cc(C(=O)c2cc(OC)c(OC)c(OC)c2)n2c1ccc1c3cccnc3ccc12 ? inactive

Recorded call for COC(=O)CC[C@@H](C)[C@H]1CC[C@H]2[C@@H]3CC[C@@H]4C[C@H](O)CC[C@]4(C)[C@H]3C[C@H](O)[C@]12C ? inactive

Recorded call for COc1ccc(-c2nn(-c3cccc(Cl)c3)cc2-c2c(C#N)c(=O)n3[nH]c(-c4ccccc4)nc3c2C#N)cc1 ? inactive

Recorded call for CC(CN(C)C)Oc1ccc(OC(C)CN(C)C)c2c1C(=O)c1ccccc1C2=O (configuration not stated) ? inactive

Recorded call for CC(C)(C)OC(=O)CC(S(=O)(=O)c1ccccc1)S(=O)(=O)c1ccccc1 ? inactive

Recorded call for COc1cc(C(=O)/C=C/c2c[nH]c3ccccc23)cc(OC)c1OC ? active

Recorded call for CC(=O)N[C@H](C(=O)N[C@@H](CCCNC(=N)N)C(=O)N[C@@H](CCCCN)C(=O)N[C@@H](CCCNC(=N)N)C(=O)N[C@]1(C)CCCCCC/C=C\CCC[C@@](C)(C(=O)N[C@@H](CCCNC(=N)N)C(=O)N[C@@H](CCC(=O)O)C(=O)N[C@@H](CC(C)C)C(=O)N[C@H](C(=O)N[C@@H](CCC(=O)O)C(N)=O)C(C)C)NC(=O)[C@H](CCC(N)=O)NC(=O)[C@H](CC(C)C)NC(=O)[C@H](CC(C)C)NC(=O)[C@H](CCCNC(=N)N)NC(=O)[C@H](CCCNC(=N)N)NC(=O)[C@H](CC(C)C)NC1=O)C(C)C ? active

Recorded call for COc1cc(/C=C2\CCCC3=C2NC(N)=NC3c2cc(OC)c(OC)c(OC)c2)cc(OC)c1OC (configuration not stated) ? active

Recorded call for CCN(CC)CCOC(=O)c1cc(OCc2ccccc2)c(OCc2ccccc2)c(OCc2ccccc2)c1 ? inactive

Recorded call for COc1ccccc1-n1c(-c2csc(NC(C)=O)n2)n[nH]c1=S ? inactive

Recorded call for CC(C)C[C@H](NC(=O)Cn1cccc(CNC(=O)c2ccccc2)c1=O)B(O)O ? inactive

Recorded call for Fc1ccc(C(c2ccc(F)cc2)C(Cl)Cl)cc1 ? inactive

Recorded call for COc1ccc(/C=C2/SC(=S)NC2=O)c(OC)c1OC ? inactive

Recorded call for S=C1N(c2ccccc2)CN(C2CCCCC2)CN1c1ccccc1 ? inactive

Recorded call for Nc1ccc(/C=N/Nc2ccnc3c(O)cccc23)c2cccnc12 ? inactive

Recorded call for COc1cc(-c2nn(-c3ccc(NC(=O)NCCNS(=O)(=O)c4ccc(F)cc4)cc3)cc2-c2ccncc2)ccc1Cl ? active

Recorded call for COc1cc2cc(Oc3ccc(NC(=O)c4cccc(C(F)(F)F)c4)cc3)c(C)nc2cc1OC ? inactive

Recorded call for CN(C)c1ccc(/C=N/NC(=O)c2cccc3ccccc23)c(Cl)c1 ? inactive

Recorded call for CCOC(=O)c1cc(C(=O)c2cc(OC)cc(OC)c2)n2nc(C)ccc12 ? inactive

Recorded call for CS(=O)(=O)c1nccc(-c2c(-c3cccc(O)c3)nc3sccn23)n1 ? inactive

Recorded call for OCC1OC(n2cnc3c(NCc4ccco4)ncnc32)C(O)C1O (configuration not stated) ? active

Recorded call for O=C(CI)OCC(COC(=O)CI)OC(=O)CI ? inactive

Recorded call for O=[N+]([O-])c1ccc2ncccc2c1Cl ? active

Recorded call for C[C@]12CC[C@@H]3c4ccc(O)cc4CC[C@H]3[C@@H]1CC[C@@H]2NS(=O)(=O)c1ccc(C(F)(F)F)cc1 ? inactive

Recorded call for C=CCNCCN1C(=O)c2ccc3c4c(ccc(c24)C1=O)C(=O)N(CCNCC=C)C3=O ? active

Recorded call for COc1ccc(/C(C#N)=C/c2cccc(OC)c2OC)cc1 ? inactive

Recorded call for COc1cc(-c2nc3ccccc3o2)cc(CN2CCCCC2)c1O ? inactive

Recorded call for Cc1ccc(/C=C2/C(=O)N(C)c3ccc(S(=O)(=O)Nc4ccc(C(C)(C)C)cc4)cc32)s1 ? inactive

Recorded call for COc1ccc(CCN2CCC(Nc3nc4ccccc4n3Cc3ccc(F)cc3)CC2)cc1 ? inactive

Recorded call for Cc1nn(-c2ccc(-c3ccc(OC(F)(F)F)cc3)cc2)c2nc(Cc3ccccc3)nc(N)c12 ? inactive

Recorded call for NS(=O)(=O)Oc1ccc(NC(=O)C2CCCCCC2)cc1 ? inactive

Recorded call for O=C(O)Cc1ccc(O)c(O)c1 ? inactive

Recorded call for COc1cc2c(Nc3ccc(S(N)(=O)=O)cc3)ncnc2c(OC)c1OC ? inactive

Recorded call for S=c1cnc2ccccc2[nH]1 ? inactive

Recorded call for COc1ccc(/C=C2\CCCC3=C2N=C2SC(C)=CN2C3c2ccc(OC)cc2)cc1 (configuration not stated) ? inactive

Recorded call for C[C@@H](O)[C@H]1C(=O)N2C(C(=O)O)=C(SCCN=CN)C[C@H]12 ? active
